measurement-protocol: refractive index (Na D-line) (dimensionless)
condition-notes: 308.15 K; 101.33 kPa; Liquid; Standard Abbe refractometry
Exercise: for every item that follows, state its recorded refractive index.
Provide a numeric answer; units are not to be included.

# lookup: refractive index of COS(=O)(=O)[O-].Cn1cc[n+](C)c1 [1,3-dimethylimidazolium methylsulfate]
1.4804

Return reported refractive index; argument: CC(C)C[P+](C)(CC(C)C)CC(C)C.Cc1ccc(S(=O)(=O)[O-])cc1 [triisobutylmethylphosphonium p-toluenesulfonate]
1.5174

What value of refractive index has been recorded for this entry: CCCCCCCC[n+]1ccn(C)c1.[Cl-] [1-methyl-3-octylimidazolium chloride]
1.5061

Look at this compound and give its reported refractive index. CCCCn1cc[n+](C)c1.O=S(=O)([O-])O [1-butyl-3-methylimidazolium hydrogen sulfate]
1.4965

Given CCCCCCn1cc[n+](C)c1.F[P-](F)(F)(F)(F)F [1-hexyl-3-methylimidazolium hexafluorophosphate] , state its recorded refractive index.
1.4148

Recorded refractive index for CCn1cc[n+](C)c1.COS(=O)(=O)[O-] [1-ethyl-3-methylimidazolium methylsulfate] , please?
1.4735

I have this compound here, CCCC[n+]1ccc(C)cc1.F[B-](F)(F)F [1-butyl-4-methylpyridinium tetrafluoroborate] , and I need its recorded refractive index.
1.4495

Query: refractive index; subject: CCCCn1cc[n+](C)c1.F[P-](F)(F)(F)(F)F [1-butyl-3-methylimidazolium hexafluorophosphate]
1.4081

Item CCCCCCCC[n+]1ccn(C)c1.F[P-](F)(F)(F)(F)F [1-octyl-3-methylimidazolium hexafluorophosphate] has what recorded refractive index?
1.4206

---

condition-notes: 308.15 K, Ring tensiometer
readout-label: surface tension liquid-gas (mN/m)
All answers are understood in mN/m, so give the number only.

Tell me the measured surface tension liquid-gas of CCCC[n+]1ccc(C)cc1.F[B-](F)(F)F [1-butyl-4-methylpyridinium tetrafluoroborate] , please.
44.8

Find the recorded surface tension liquid-gas belonging to CCCCCCCC[n+]1ccn(C)c1.F[P-](F)(F)(F)(F)F [1-octyl-3-methylimidazolium hexafluorophosphate] and report it.
35.6

Entry CCn1cc[n+](C)c1.COS(=O)(=O)[O-] [1-ethyl-3-methylimidazolium methylsulfate] : reported surface tension liquid-gas = ?
39.2

Can you look up the measured surface tension liquid-gas of CCCCCCn1cc[n+](C)c1.F[P-](F)(F)(F)(F)F [1-hexyl-3-methylimidazolium hexafluorophosphate] for me?
36.6

---

For each entry below, report its log10(viscosity) value.
condition-notes: 323.15 K; 101.33 kPa; Liquid
Transform log10 | Measure viscosity | Unit mPa·s

Requested read-out: log10(viscosity). Entry: COS(=O)(=O)[O-].Cn1cc[n+](C)c1 [1,3-dimethylimidazolium methylsulfate]
1.44

Which measured log10(viscosity) value corresponds to CCCCn1cc[n+](C)c1.F[P-](F)(F)(F)(F)F [1-butyl-3-methylimidazolium hexafluorophosphate] ?
1.87

Look up log10(viscosity) for this compound: CC(C)C[P+](C)(CC(C)C)CC(C)C.Cc1ccc(S(=O)(=O)[O-])cc1 [triisobutylmethylphosphonium p-toluenesulfonate]
2.48

Could you share which log10(viscosity) value was measured for CCCC[n+]1ccc(C)cc1.F[B-](F)(F)F [1-butyl-4-methylpyridinium tetrafluoroborate] ?
1.70

What value of log10(viscosity) has been recorded for this entry: CCn1cc[n+](C)c1.COS(=O)(=O)[O-] [1-ethyl-3-methylimidazolium methylsulfate]
1.55

Give its log10(viscosity) value. Item: CCCCn1cc[n+](C)c1.O=S(=O)([O-])O [1-butyl-3-methylimidazolium hydrogen sulfate]
2.05

What measured log10(viscosity) goes with CCCCCCCC[n+]1ccn(C)c1.F[P-](F)(F)(F)(F)F [1-octyl-3-methylimidazolium hexafluorophosphate] ?
2.14

For the compound shown here, CCCCCCn1cc[n+](C)c1.F[P-](F)(F)(F)(F)F [1-hexyl-3-methylimidazolium hexafluorophosphate] , give the reported log10(viscosity).
1.94

Value lookup for log10(viscosity); key = CCCCCCCC[n+]1ccn(C)c1.[Cl-] [1-methyl-3-octylimidazolium chloride]
3.12

---

condition-notes: 313.15 K; 101.33 kPa; Liquid
readout-label: viscosity (mPa·s)
Report the figure in mPa·s without appending any unit label.

Reported viscosity, compound CCCCCCCC[n+]1ccn(C)c1.[Cl-] [1-methyl-3-octylimidazolium chloride] : ____
3006.7

What viscosity value was documented for this compound, CCCC[n+]1ccc(C)cc1.F[B-](F)(F)F [1-butyl-4-methylpyridinium tetrafluoroborate] ?
82.49

Query (compound): CCn1cc[n+](C)c1.COS(=O)(=O)[O-] [1-ethyl-3-methylimidazolium methylsulfate] ; field requested: viscosity
51.28

GET /values?readout=viscosity&item= CCCCCCCC[n+]1ccn(C)c1.F[P-](F)(F)(F)(F)F [1-octyl-3-methylimidazolium hexafluorophosphate]
234.24

---

condition-notes: 303.15 K, Ring tensiometer
Exercise: state measured surface tension liquid-gas for each of the molecules provided.
State the answer as a number, implicitly in mN/m.

Please report the recorded surface tension liquid-gas for CCCCCCCC[n+]1ccn(C)c1.F[P-](F)(F)(F)(F)F [1-octyl-3-methylimidazolium hexafluorophosphate] .
35.9

// surface tension liquid-gas lookup, key: CCCC[n+]1ccc(C)cc1.F[B-](F)(F)F [1-butyl-4-methylpyridinium tetrafluoroborate]
45.1

What value of surface tension liquid-gas has been recorded for this entry: CCCCCCCC[n+]1ccn(C)c1.[Cl-] [1-methyl-3-octylimidazolium chloride]
32.2

// lookup surface tension liquid-gas for COS(=O)(=O)[O-].Cn1cc[n+](C)c1 [1,3-dimethylimidazolium methylsulfate]
57.3

// returns reported surface tension liquid-gas for input CCCCn1cc[n+](C)c1.O=S(=O)([O-])O [1-butyl-3-methylimidazolium hydrogen sulfate]
43.2

Item CC(C)C[P+](C)(CC(C)C)CC(C)C.Cc1ccc(S(=O)(=O)[O-])cc1 [triisobutylmethylphosphonium p-toluenesulfonate] has what recorded surface tension liquid-gas?
33.8

Entry CCn1cc[n+](C)c1.COS(=O)(=O)[O-] [1-ethyl-3-methylimidazolium methylsulfate] has what surface tension liquid-gas?
39.5

Quick one: surface tension liquid-gas of CCCCn1cc[n+](C)c1.F[P-](F)(F)(F)(F)F [1-butyl-3-methylimidazolium hexafluorophosphate] ?
42.6

Please report the recorded surface tension liquid-gas for CCCCCCn1cc[n+](C)c1.F[P-](F)(F)(F)(F)F [1-hexyl-3-methylimidazolium hexafluorophosphate] .
36.9

---

measurement-protocol: refractive index (Na D-line) (dimensionless)
condition-notes: 313.15 K; 101.33 kPa; Liquid; Standard Abbe refractometry
Numbers after ± are expanded uncertainties.
readout-label: refractive index

I'd like to know its refractive index. The compound in question is CCn1cc[n+](C)c1.COS(=O)(=O)[O-] [1-ethyl-3-methylimidazolium methylsulfate]
1.4721 ± 0.0009

Return reported refractive index; argument: CCCCCCCC[n+]1ccn(C)c1.F[P-](F)(F)(F)(F)F [1-octyl-3-methylimidazolium hexafluorophosphate]
1.4201 ± 0.0013

Any idea what its refractive index is? The compound is CCCCn1cc[n+](C)c1.F[P-](F)(F)(F)(F)F [1-butyl-3-methylimidazolium hexafluorophosphate]
1.407 ± 0.001

Any idea what refractive index was measured for CC(C)C[P+](C)(CC(C)C)CC(C)C.Cc1ccc(S(=O)(=O)[O-])cc1 [triisobutylmethylphosphonium p-toluenesulfonate] ?
1.516 ± 0.0013

Query: refractive index; subject: CCCCCCCC[n+]1ccn(C)c1.[Cl-] [1-methyl-3-octylimidazolium chloride]
1.5058 ± 0.001

Form field: reported refractive index of CCCCCCn1cc[n+](C)c1.F[P-](F)(F)(F)(F)F [1-hexyl-3-methylimidazolium hexafluorophosphate]
1.4134 ± 0.001

I'd like to know its refractive index. The compound in question is CCCC[n+]1ccc(C)cc1.F[B-](F)(F)F [1-butyl-4-methylpyridinium tetrafluoroborate]
1.4488 ± 0.001

Record request: refractive index value, item COS(=O)(=O)[O-].Cn1cc[n+](C)c1 [1,3-dimethylimidazolium methylsulfate]
1.4797 ± 0.001

Can you share its refractive index? I mean this compound: CCCCn1cc[n+](C)c1.O=S(=O)([O-])O [1-butyl-3-methylimidazolium hydrogen sulfate]
1.4914 ± 0.0013

---

Exercise: for every item that follows, state its recorded surface tension liquid-gas.
condition-notes: 298.15 K, Ring tensiometer
Please state the figure in mN/m; there is no need to write the unit.

Please report the recorded surface tension liquid-gas for CCCCCCCC[n+]1ccn(C)c1.[Cl-] [1-methyl-3-octylimidazolium chloride] .
32.5

// query surface tension liquid-gas value for entry CCCCCCn1cc[n+](C)c1.F[P-](F)(F)(F)(F)F [1-hexyl-3-methylimidazolium hexafluorophosphate]
37.2

Need surface tension liquid-gas of CCn1cc[n+](C)c1.COS(=O)(=O)[O-] [1-ethyl-3-methylimidazolium methylsulfate] , thanks.
39.8

Fill in: surface tension liquid-gas of CCCCCCCC[n+]1ccn(C)c1.F[P-](F)(F)(F)(F)F [1-octyl-3-methylimidazolium hexafluorophosphate] is ___
36.1

Reported surface tension liquid-gas for COS(=O)(=O)[O-].Cn1cc[n+](C)c1 [1,3-dimethylimidazolium methylsulfate] : what is it?
57.6

Data request, read-out surface tension liquid-gas, for CCCC[n+]1ccc(C)cc1.F[B-](F)(F)F [1-butyl-4-methylpyridinium tetrafluoroborate]
45.4

Reported surface tension liquid-gas, molecule CC(C)C[P+](C)(CC(C)C)CC(C)C.Cc1ccc(S(=O)(=O)[O-])cc1 [triisobutylmethylphosphonium p-toluenesulfonate] : ____
33.9

Item CCCCn1cc[n+](C)c1.F[P-](F)(F)(F)(F)F [1-butyl-3-methylimidazolium hexafluorophosphate] has what recorded surface tension liquid-gas?
43

Request the reported surface tension liquid-gas associated with CCCCn1cc[n+](C)c1.O=S(=O)([O-])O [1-butyl-3-methylimidazolium hydrogen sulfate]
43.6
